organism: Bos taurus; assay: Inhibition of bovine brain tubulin polymerization at 1 uM after 30 mins by spectrophotometric analysis
parameter.measured: inhibition (%)
Answers are plain numbers, in %.

Below: 3 compounds and their reported inhibition.
compound: COc1cc([C@@H]2c3cc4c(cc3[C@](O)(C3(O)CCOCC3)[C@H]3COC(=O)[C@@H]23)OCO4)cc(OC)c1OC
unit.text: %
numeric.readout: 21.1
--
compound: COc1cc([C@@H]2c3cc4c(cc3[C@](O)(C3(O)C5CCCC3CCC5)[C@H]3COC(=O)[C@H]23)OCO4)cc(OC)c1OC (stereo partly specified)
unit.text: %
numeric.readout: 45.1
--
compound: COc1cc([C@@H]2c3cc4c(cc3[C@@](O)(C3(O)CCOCC3)[C@H]3COC(=O)[C@@H]23)OCO4)cc(OC)c1OC
unit.text: %
numeric.readout: 2.8

Provide each entry's inhibition from the list below.
1. COc1cc([C@@H]2c3cc4c(cc3[C@@](O)(C3(O)C5CCCC3CCC5)[C@H]3COC(=O)[C@H]23)OCO4)cc(OC)c1OC (stereo partly specified)
2. COc1cc([C@@H]2c3cc4c(cc3[C@H](O)[C@H]3COC(=O)[C@H]23)OCO4)cc(OC)c1OC
3. COc1cc([C@@H]2c3cc4c(cc3[C@H](C(C)C)[C@H]3COC(=O)[C@@H]23)OCO4)cc(OC)c1OC

Reply:
12
7
84.5

---

Kindly state GI50 for each of the entries shown.
test system: HT-29; assay: Growth inhibition of human HT-29 cells after 72 hrs by SRB assay; type: functional; settings: HT-29, 72 h
Structures can show the parent of a compound that is named as a salt.
Numbers only, in nM.

Below: 4 molecules and their reported GI50.
molecule: COc1cc([C@@H]2c3cc4c(cc3[C@@]3(OC(C)(C)O[C@H]3C)[C@H]3COC(=O)[C@H]23)OCO4)cc(OC)c1OC
GI50 [nM]: 6560
//
molecule: COc1cc([C@@H]2c3cc4c(cc3[C@](O)([C@](O)(c3ccccc3)C(C)C)[C@H]3COC(=O)[C@H]23)OCO4)cc(OC)c1OC
GI50 [nM]: 159
//
molecule: COc1cc([C@@H]2c3cc4c(cc3[C@](O)(C3(O)CCSCC3)[C@H]3COC(=O)[C@@H]23)OCO4)cc(OC)c1OC
GI50 [nM]: 2620
//
molecule: COc1ccc([C@@](C)(O)[C@@]2(O)c3cc4c(cc3[C@@H](c3cc(OC)c(OC)c(OC)c3)[C@H]3C(=O)OC[C@@H]32)OCO4)cc1OC
GI50 [nM]: 4750

Provide each entry's GI50 from the list below.
1. COc1cc([C@@H]2c3cc4c(cc3[C@@H](O)[C@H]3COC(=O)[C@H]23)OCO4)cc(OC)c1OC [EPIPODOPHYLLOTOXIN]
2. COc1cc([C@@H]2c3cc4c(cc3[C@@](O)(C(C)(C)O)[C@H]3COC(=O)[C@H]23)OCO4)cc(OC)c1OC
3. COc1cccc2c1C(=O)c1c(O)c3c(c(O)c1C2=O)C[C@@](O)(C(=O)CO)C[C@@H]3O[C@H]1C[C@H](N)[C@H](O)[C@H](C)O1 [DOXORUBICIN HYDROCHLORIDE]
4. COc1cc([C@@H]2c3cc4c(cc3[C@@](O)(C3(O)CCOCC3)[C@H]3COC(=O)[C@@H]23)OCO4)cc(OC)c1OC

Reply:
1. 60
2. 659
3. 153
4. 15400

Provide each entry's GI50 from the list below.
1. COc1cc([C@@H]2c3cc4c(cc3[C@](O)(C3(O)C5CCCC3CCC5)[C@H]3COC(=O)[C@H]23)OCO4)cc(OC)c1OC (stereo partly drawn)
2. COc1cc([C@@H]2c3cc4c(cc3C(=C(C)C)[C@H]3COC(=O)[C@@H]23)OCO4)cc(OC)c1OC
3. COc1cc([C@@H]2c3cc4c(cc3[C@](O)(C3(O)CCOCC3)[C@H]3COC(=O)[C@@H]23)OCO4)cc(OC)c1OC
4. COc1cc([C@@H]2c3cc4c(cc3[C@](O)([C@](C)(O)C(C)C)[C@H]3COC(=O)[C@H]23)OCO4)cc(OC)c1OC

Reply:
1: 5.14; 2: 8280; 3: 26.8; 4: 204

Query: Recorded GI50 for COc1cc([C@@H]2c3cc4c(cc3[C@H](O)[C@H]3COC(=O)[C@H]23)OCO4)cc(OC)c1OC with HT-29, please?
Reply: 12
